B1: HDV Ribozyme (parent)
chain: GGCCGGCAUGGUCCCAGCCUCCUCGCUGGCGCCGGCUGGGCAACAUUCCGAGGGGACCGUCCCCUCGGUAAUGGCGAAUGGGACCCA

Variants of: B1
RUN DESCRIPTION: self-cleavage, relative activity (ratio to wild type); higher = more cleavage; co-transcriptional

ENTRY SEQUENCE	self-cleavage
GGCCGGCAUGGUCCCAGCCUCCACGCUGGCGCCGGCUGGGCAGCAUUCCGAGGGGACCGUCCCCUCGGUAAUGGCGAAUGGGACCCA [U23A A43G]	0.516
GGCCGGCAUGGUCCCAGCCUCCUCGCUGGCGCCGGCUGGGCAACAUUCCGAGGGGACCUUCCCCUCGGUCAUGGCGAAUGGGACCCA [G59U A70C]	0.77
GGCCGGCAUGGUCCCAGCCUCCUCGCUGACGCCGGCUGGGCAACAUUCCGAGGGGACCUUCCCCUCGGUAAUGGCGAAUGGGACCCA [G29A G59U]	0.149
GGCCGGCAUGGUCCCAGCCUCCUCGCUGGCGCCAGCUGGGCAACAUUCCGAGGGGACCGUCCCCUCGGUAAUGCCGAAUGGGACCCA [G34A G74C]	0.102
GGCCGGCAUGGUCCCAGCCUCCUCGCUGGCGCCGGCUGGGCAACAUUCCGAGGGGACCGUCCCCUCGGUGAUGGCGAAUGCGACCCA [A70G G81C]	0.277
GGCCGGCAUGGUCCCAGCCUCCUCGCUGGCGCCGGCUGGGCAACAUUCCGAGGGGACCGUCCCUUCGGUAAUGGGGAAUGGGACCCA [C64U C75G]	0.106
GGCCGGCAUGGUCCCAGCCUCCUCGCUGGCGCCGGCUGGGCAACAUUCCGAGGGGACCGUCCCCUCGGUCAUGGCGAAUGGUACCCA [A70C G82U]	0.166
GGCCGGCAUGGUCCCAGCCUUCUCGCUGGCGCCGGCUGGGCAACAUUCCGAGGGGACCGUCCCCUCGGUAAUGGCGAAUAGGACCCA [C21U G80A]	0.185
GGCCGGCAUGGUCCCAGCCUCCUCGCUGGCGCCGGCUGGGCAACAUUCCGAGGGGACCGUCCUCUCGGUAAUCGCGAAUGGGACCCA [C63U G73C]	0.618
GGCCGGCAUGGUCCCAGCCUCCUCGCUGGCGCCGGCUGGGCAACAUUCCCAGGGGACCGUCCCCUCGGUAAUGGCGACUGGGACCCA [G50C A78C]	0.188
